test: Inhibition of human mitochondrial HSP60 expressed in Escherichia coli Rosetta 2 (DE3) cells/human mitochondrial HSP10 expressed in Escherichia coli Rosetta 2 (DE3) pLysS cells assessed as inhibition of […]-mediated dMDH refolding by reporter analysis
Format: mitochondria, Mitochondria
endpointName: IC50 (µM)
Answer format: numeric, µM implied, no suffix.

May I ask what IC50 has been recorded for CC(=O)Nc1ccc(C(=O)/C=C/c2cccc([N+](=O)[O-])c2)cc1 ? 7.7

May I ask what IC50 has been recorded for O=C(/C=C/c1ccccc1)c1ccccc1 [CHALCONE] ? 8.6

May I ask what IC50 has been recorded for O=C(/C=C/c1ccco1)c1ccc(NC(=O)c2cccs2)cc1 ? 12

###

test: Cytotoxicity against human FHs74Int cells assessed as reduction in cell viability incubated for 48 hrs by AlamarBlue-based assay
Type: toxicity
endpointName: CC50 at 48 h

May I ask what CC50 at 48 h has been recorded for O=C(/C=C/c1ccco1)c1ccc(NC(=O)c2ccccc2)cc1 ? > 100 µM

May I ask what CC50 at 48 h has been recorded for O=C(NCc1ccccc1)c1ccccc1 ? > 100 µM

May I ask what CC50 at 48 h has been recorded for O=C(/C=C/c1cccc([N+](=O)[O-])c1)c1ccc(NC(=O)c2ccccc2)cc1 ? > 100 µM
